// EC50 lookup, one value per entry
# system-tested: T1, human TIM-3 on cells (human, UniProt Q8TDQ0 22-301)
# T1 construct: also called CHO-Tim3; rec CHOK1 cells expressing huTIM-3
# test: cell ELISA, CHO-Tim3; EC50 relative to the sample's max value
Give the value, in units of µg/mL, as a plain number.

aTim3 0016MutNS (antibody, V domains shown) VH: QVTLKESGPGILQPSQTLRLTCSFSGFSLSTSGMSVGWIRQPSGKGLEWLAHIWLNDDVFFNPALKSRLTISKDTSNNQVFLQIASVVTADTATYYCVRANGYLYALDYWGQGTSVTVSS VL: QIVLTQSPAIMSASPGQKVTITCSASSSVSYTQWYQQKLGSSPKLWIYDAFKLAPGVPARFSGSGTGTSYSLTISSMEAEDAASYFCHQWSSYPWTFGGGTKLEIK    0.0091

QUERY: // returns reported EC50 for input aTim3 0016 MutNQ (antibody, V domains shown) VH: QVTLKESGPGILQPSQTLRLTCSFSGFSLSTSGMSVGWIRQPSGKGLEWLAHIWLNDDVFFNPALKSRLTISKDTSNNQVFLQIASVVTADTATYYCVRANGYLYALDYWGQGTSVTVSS VL: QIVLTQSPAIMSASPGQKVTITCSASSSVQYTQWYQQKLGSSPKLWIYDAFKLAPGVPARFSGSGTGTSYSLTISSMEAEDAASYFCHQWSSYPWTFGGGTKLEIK
RESULT: 0.0068

QUERY: Record request: EC50 value, item aTim3 0018MutNS (antibody, V domains shown, also called aT3m3 0018MutNS) VH: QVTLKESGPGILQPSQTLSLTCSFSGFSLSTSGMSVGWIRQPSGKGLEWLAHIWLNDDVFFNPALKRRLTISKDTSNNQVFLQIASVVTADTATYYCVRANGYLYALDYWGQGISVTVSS VL: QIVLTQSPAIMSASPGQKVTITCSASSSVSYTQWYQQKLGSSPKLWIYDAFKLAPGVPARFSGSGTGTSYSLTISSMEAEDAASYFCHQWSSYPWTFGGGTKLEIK
RESULT: 0.0112

QUERY: Could you share which EC50 value was measured for Tim3_0016 variant (Tim3_0018) (antibody, V domains shown, also called TIM3-0016 variant (0018); aTim3 0018) VH: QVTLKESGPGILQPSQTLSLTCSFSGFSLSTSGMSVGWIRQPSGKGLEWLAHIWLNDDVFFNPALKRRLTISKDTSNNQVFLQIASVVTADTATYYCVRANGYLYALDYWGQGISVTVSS VL: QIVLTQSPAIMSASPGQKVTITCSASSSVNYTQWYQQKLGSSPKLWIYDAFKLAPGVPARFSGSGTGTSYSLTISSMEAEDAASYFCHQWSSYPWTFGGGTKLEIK ?
RESULT: 0.0264

QUERY: Using the record for aTim3 0018MutNQ (antibody, V domains shown, also called aT3m3 0018MutNQ) VH: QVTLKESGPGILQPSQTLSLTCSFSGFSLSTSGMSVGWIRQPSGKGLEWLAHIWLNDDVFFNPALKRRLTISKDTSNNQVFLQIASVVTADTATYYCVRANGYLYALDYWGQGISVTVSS VL: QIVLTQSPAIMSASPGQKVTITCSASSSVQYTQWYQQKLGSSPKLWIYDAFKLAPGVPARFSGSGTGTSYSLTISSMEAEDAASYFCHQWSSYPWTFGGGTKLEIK , report its EC50.
RESULT: 0.0134
